B1: Osa-1-4 twister ribozyme (parent)
chain: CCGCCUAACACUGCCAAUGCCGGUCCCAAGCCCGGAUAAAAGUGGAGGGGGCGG

variants of: B1; assay: self-cleavage, relative activity (ratio to wild type); higher = more cleavage; co-transcriptional
Each entry below lists one item and its recorded self-cleavage value.

Example variants with recorded self-cleavage:
G22U G48U	0.05
A40U G42U	0.06

Attention now shifts to the item below.
Incoming: Given the variant G48A , write its reported self-cleavage.
Outgoing: 0.14
